# credit: paper PMC13266984

Molecular target: UniProt:P30838
Sequence (P30838 1-453): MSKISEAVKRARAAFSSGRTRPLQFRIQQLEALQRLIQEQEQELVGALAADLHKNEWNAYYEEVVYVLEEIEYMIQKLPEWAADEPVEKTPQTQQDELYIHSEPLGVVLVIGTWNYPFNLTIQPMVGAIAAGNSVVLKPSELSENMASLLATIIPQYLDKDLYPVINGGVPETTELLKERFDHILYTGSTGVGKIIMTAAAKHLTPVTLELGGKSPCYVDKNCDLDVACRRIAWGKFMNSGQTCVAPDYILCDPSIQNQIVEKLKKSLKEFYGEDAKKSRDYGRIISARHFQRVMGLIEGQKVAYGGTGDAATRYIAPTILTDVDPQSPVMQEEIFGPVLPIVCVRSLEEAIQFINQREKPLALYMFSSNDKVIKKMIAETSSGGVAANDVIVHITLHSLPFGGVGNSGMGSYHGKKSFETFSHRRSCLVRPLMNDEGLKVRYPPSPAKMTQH
Assay: ALDH3A1 biochemical assay (benzaldehyde/NADP+, diaphorase-resazurin readout, 1,536-well)
Conditions: Table S2, in-house analogs; curve class
observable: CC-v2

Known results for molecules:
COc1ccc(-n2nc(C)c([C@@H]3C=C[C@@H](NCc4cccc(Cl)c4)C3)c2C)cc1 :: -2.2
COc1ccc(-n2nc(C)c([C@@H]3C=C[C@@H](NCc4ccc(N(C)C)cc4)C3)c2C)cc1 :: -2.1
O=C(NCc1ccccc1)c1csc(N2CCN(c3ccc(Cl)cc3)CC2)n1 :: -1.2
COc1cccc(N2CCN(c3nc(C(=O)NCc4ccncc4)cs3)CC2)c1 :: -2.2
COc1ccc(-n2nc(C)c([C@@H]3C=C[C@@H](NCc4ccccc4)C3)c2C)cc1 :: -2.4
O=C(NCc1cccc(F)c1)c1csc(N2CCN(c3ccc(Cl)cc3)CC2)n1 :: -1.2
COC(=O)c1ccc2nc(CO[C@H]3CN(C(C)=O)C[C@H]3F)[nH]c2c1 :: -1.2
Cc1ccc2[nH]c(CO[C@H]3CN(C4CCOCC4)C[C@H]3F)nc2c1 :: -1.4

A: O=C(NCc1ccc(F)cc1)c1csc(N2CCN(c3ccccc3F)CC2)n1
B: Cc1nn(CCC#N)c(C)c1[C@@H]1C=C[C@@H](NC(=O)Nc2ccc(Cl)cc2)C1
# input Hi there! Just curious which has the higher CC-v2 between A and B . Let me know the label of the one you choose.
# output A

P: Cc1ccc2[nH]c(CO[C@H]3CN(Cc4ccc(F)c(F)c4)C[C@H]3F)nc2c1
Q: Fc1ccc2[nH]c(CO[C@H]3CN(Cc4ccc5ccccc5n4)C[C@H]3F)nc2c1
# input Please let me know which one, P or Q , has a lower measured CC-v2 value. Let me know the label of the one you choose.
# output P

###

target: Human ALDH3A1 (Homo sapiens); test: ALDH3A1 biochemical assay (benzaldehyde/NADP+, diaphorase-resazurin readout, 1,536-well); conditions: Table S4, biochemical
observable: Efficacy

Known results for molecules:
Cc1cccc(CNC(=O)c2csc(N3CCN(c4cccc(C)c4)CC3)n2)c1 [NCGC01211399-01] :: -77.88
Cc1cccc(CNC(=O)c2csc(N3CCN(c4cccc(C(F)(F)F)c4)CC3)n2)c1 [Compound 5] :: -100.07
Cc1cccc(CNC(=O)c2csc(N3CCN(c4cccc(C(F)(F)F)n4)CC3)n2)c1 [NCGC01210535-01] :: -96.11

I: COc1ccc(N2CCN(c3nc(C(=O)NCc4cccc(C)c4)cs3)CC2)c(OC)c1 [NCGC01211174-01]
II: Cc1cccc(CNC(=O)c2csc(N3CCN(c4ccc(Cl)cn4)CC3)n2)c1 [Compound 11]
# input Please let me know which one, I or II , has a lower measured Efficacy value. Let me know the label of the one you choose.
# output II
(II: -99.36, I: -66.83)

P: Cc1cccc(CNC(=O)c2csc(N3CCN(c4ccc(F)c(Cl)c4)CC3)n2)c1 [Compound 12]
Q: Cc1cccc(CNC(=O)c2csc(N3CCN(c4cccc(OCc5ccc(Cl)cc5)c4)CC3)n2)c1 [NCGC01211114-01]
# input Please let me know which one, P or Q , has a lower measured Efficacy value. Let me know the label of the one you choose.
# output P

A: Cc1cccc(CNC(=O)c2csc(N3CCN(c4ccc(C(F)(F)F)cc4)CC3)n2)c1 [Compound 7]
B: Cc1cccc(CNC(=O)c2csc(N3CCN(c4ccc(O)cc4)CC3)n2)c1 [NCGC01211126-01]
# input Please let me know which one, A or B , has a lower measured Efficacy value. Let me know the label of the one you choose.
# output A
(A: -97.93, B: -62.10)

###

Target: Human ALDH3A1 (Homo sapiens, UniProt P30838)
Sequence (P30838 1-453): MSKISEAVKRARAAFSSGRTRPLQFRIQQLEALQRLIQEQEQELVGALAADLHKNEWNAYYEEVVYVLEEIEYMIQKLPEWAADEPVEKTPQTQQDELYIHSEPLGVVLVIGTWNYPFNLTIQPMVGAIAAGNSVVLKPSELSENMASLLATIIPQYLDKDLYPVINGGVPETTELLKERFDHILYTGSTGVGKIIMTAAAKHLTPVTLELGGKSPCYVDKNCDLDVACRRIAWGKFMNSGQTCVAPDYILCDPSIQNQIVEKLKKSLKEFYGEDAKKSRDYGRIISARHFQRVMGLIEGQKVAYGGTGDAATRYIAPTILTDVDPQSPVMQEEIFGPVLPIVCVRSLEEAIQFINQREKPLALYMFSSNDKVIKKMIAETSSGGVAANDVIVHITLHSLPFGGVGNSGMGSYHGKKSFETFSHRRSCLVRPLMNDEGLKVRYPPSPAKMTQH
Assay: ALDH3A1 biochemical assay (benzaldehyde/NADP+, diaphorase-resazurin readout, 1,536-well)
observable: AC50 (nM)

Known results for compounds:
COCc1nc(N2CCC(Cn3cccn3)CC2)cc([C@H]2C[C@H](N)C2)n1 :: 15800
CC(C)(O)c1ccc(CNC(=O)c2csc(N3CCN(c4cccc(C(F)(F)F)c4)CC3)n2)cc1 :: 891
COc1cccc(CN2CC(C(=O)NCc3cc4ccccc4[nH]3)CCC2=O)c1 (centres unmarked) :: 15800
Cc1cccc(CNC(=O)c2csc(N3CCN(c4ccc(C)c(C)c4)CC3)n2)c1 :: 1020

a: O=C(CCc1cc2n(n1)CCCNC2)Nc1ccc2c(c1)OCCO2
b: Cc1cccc(CNC(=O)c2csc(N3CCN(c4cccc(OC(F)(F)F)c4)CC3)n2)c1
c: Cc1ccc2[nH]c(CO[C@H]3CN(C4CCOCC4)C[C@H]3F)nc2c1
d: COc1ccc(N2CCN(c3nc(C(=O)NCc4cccc(C(F)(F)F)c4)cs3)CC2)cc1
# input Sort (4 compounds) by AC50: min first. Please list each label once, in the requested order.
# output c, b, d, a

###

target: OE19 (3A1) (Homo sapiens); experiment: Cellular ALDEFLUOR assay in OE19 cells (preferential ALDH3A1 expression); settings: Table S5, OE19 cells
observable: Cell_Efficacy

Known results for compounds:
Cc1ccc(-c2cccc(CNC(=O)c3csc(N4CCN(c5cccc(C(F)(F)F)c5)CC4)n3)c2)cc1 :: -77.01
CC(C)(C)c1cccc(CNC(=O)c2csc(N3CCN(c4cccc(C(F)(F)F)c4)CC3)n2)c1 :: -76.28

a: O=C(NCc1cccc(C2CC2)c1)c1csc(N2CCN(c3cccc(C(F)(F)F)c3)CC2)n1
b: O=C(NCc1ccc(-c2ccncc2)nc1)c1csc(N2CCN(c3cccc(C(F)(F)F)c3)CC2)n1
# input Hi there! Just curious which has the higher Cell_Efficacy between a and b . Let me know the label of the one you choose.
# output a
(a: -65.41, b: -106.03)

###

Target: Human ALDH3A1 (Homo sapiens)
Sequence (P30838 1-453): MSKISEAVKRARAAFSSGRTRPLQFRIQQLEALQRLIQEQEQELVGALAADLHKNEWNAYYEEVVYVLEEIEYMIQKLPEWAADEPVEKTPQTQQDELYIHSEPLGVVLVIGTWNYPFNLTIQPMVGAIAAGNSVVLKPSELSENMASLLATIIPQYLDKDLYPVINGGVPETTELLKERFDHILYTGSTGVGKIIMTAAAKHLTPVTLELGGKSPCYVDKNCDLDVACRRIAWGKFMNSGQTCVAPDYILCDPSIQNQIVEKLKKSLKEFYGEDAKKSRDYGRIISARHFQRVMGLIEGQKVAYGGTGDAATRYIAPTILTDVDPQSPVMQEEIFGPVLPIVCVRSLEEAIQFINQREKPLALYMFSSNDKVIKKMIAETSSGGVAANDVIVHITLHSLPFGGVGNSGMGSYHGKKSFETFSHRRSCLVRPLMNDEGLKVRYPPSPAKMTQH
Test: ALDH3A1 biochemical assay (benzaldehyde/NADP+, diaphorase-resazurin readout, 1,536-well)
observable: AC50 (nM)

Known results for molecules:
COc1cccc(CN2CC(Oc3ccccc3C(=O)NC3CC3)C2)c1 :: 39800
C[S+](=N)([O-])c1cccc(CNC(=O)c2csc(N3CCN(c4cccc(C(F)(F)F)c4)CC3)n2)c1 (stereo not shown) :: 8910
CC1(COCC2CC2)COc2ccc(C(=O)Nc3cccc([S+](C)(=O)[O-])c3)cc2N1 (stereo not shown) :: 35500
O=C(NCC1CC1)c1csc(N2CCN(c3ccccc3F)CC2)n1 :: 28200
Cc1cccc(CNC(=O)c2csc(N3CCN(c4c(Cl)cccc4Cl)CC3)n2)c1 :: 510
Cc1cc(CNC(=O)c2csc(N3CCN(c4cccc(C(F)(F)F)c4)CC3)n2)ccc1-c1ccccc1 :: 316
Cc1cccc(CNC(=O)c2csc(N3CCN(c4ccc(Cl)cn4)CC3)n2)c1 :: 460
N#CSc1ccc(NC(=O)c2csc(N3CCN(c4cccc(C(F)(F)F)c4)CC3)n2)c(F)c1 :: 15800
O=C(NCc1ccc(F)cc1)c1csc(N2CCN(c3ccccc3F)CC2)n1 :: 2000
Cc1cccc(CNC(=O)c2csc(N3CCN(c4cc(C(F)(F)F)nc5ccccc45)CC3)n2)c1 :: 810

a: COc1cc(N2CCN(c3nc(C(=O)NCc4cccc(C)c4)cs3)CC2)ccc1F
b: COc1cccc(CNC(=O)CCNc2cnc3cnccn23)c1
# input Hi there! Just curious which has the higher AC50 between a and b . Let me know the label of the one you choose.
# output b
(b: 14100 nM, a: 2890 nM)
